assay: NCI Yeast Anticancer Drug Screen. Data for the bub3 strain (AID 167); conditions: S. cerevisiae bub3 mutant strain, at 1.2 µM, active compounds read high
About 79,000 compounds went through this panel and 15% of them were active in at least one assay; those are over-represented in the sample as a whole.
So I've got a bunch of compounds here, and I need their growth inhibition values.
Give bare numbers, in %.

Please supply growth inhibition for each of the following items, keeping them in order.
1. ClCCn1c(CCl)nc2ccc(Cl)cc21
2. CC(C)c1[nH]nc(C(N)=O)c1N=NN(C)C

[-20, -17]

I would be grateful if you could provide growth inhibition for each of the following entries.
1. Cc1ccc(Nc2c3c(c(C#N)c4nc5ccccc5n24)CCCC3)cc1
2. COc1ccc(N2CN(C)CSC2=S)cc1
3. O=C1c2ccccc2CCC1(Br)Br
4. Oc1ccc(Br)cc1C=NC1CCCCC1

1: 8; 2: -12; 3: 1; 4: -4

Please go through the list and note growth inhibition for each compound.
1. O=Nn1c2ccccc2c2ccccc21
2. CC(=O)O[C@H]1C(=O)[C@@]2(C)[C@H]([C@H](OC(=O)c3ccccc3)[C@]3(O)C[C@H](OC(=O)[C@H](O)[C@@H](NC(=O)c4ccccc4)c4ccccc4)C(C)=C1C3(C)C)[C@]1(OC(C)=O)CO[C@@H]1C[C@@H]2O
3. CC(=O)N1C(=O)/C(=C\C(=O)c2ccc(Cl)cc2)c2ccccc21

-7
-5
2
